system: MDBK cells; test: Cytotoxicity assay (MTS/PMS); conditions: MDBK cells, 3 days
Listing of entries alongside the reported MNCC (maximum non-cytotoxic concentration).
Metric Name: MNCC (maximum non-cytotoxic concentration) (µM)

[[record]]
molecule = "c1ccc(CN2CCC(Nc3nc(-c4ccccc4)nc4ccccc34)CC2)cc1 [Compound 1.11]"
unit_text = "µM"
assay_value = 7.5

[[record]]
molecule = "CN(C)CCCNc1nc(-c2ccccc2)nc2ccccc12 [Compound 1.7]"
unit_text = "µM"
assay_value = 18.6

[[record]]
molecule = "O=[N+]([O-])c1ccc(-c2nc(N3CCN(CCO)CC3)c3ccccc3n2)cc1 [Compound 1.16]"
unit_text = "µM"
assay_value = 5.9

[[record]]
molecule = "OCCN1CCN(c2nc(-c3ccc(Cl)cc3Cl)nc3ccccc23)CC1 [Compound 1.17]"
unit_text = "µM"
assay_value = 17.4

[[record]]
molecule = "CC1(C)CC(Nc2nc(-c3ccccc3)nc3ccccc23)CC(C)(C)N1 [Compound 1.12]"
unit_text = "µM"
assay_value = 3.3

[[record]]
molecule = "CN(C)c1ccc(-c2nc(N3CCN(CCO)CC3)c3ccccc3n2)cc1 [Compound 1.18]"
unit_text = "µM"
assay_value = 26.1

[[record]]
molecule = "Cc1ccc(-c2nc(N3CCN(CCO)CC3)c3ccccc3n2)cc1 [Compound 1.20]"
unit_text = "µM"
assay_value = 30.5

[[record]]
molecule = "FC(F)(F)c1cccc(CNc2nc(-c3ccccc3)nc3ccccc23)c1 [Compound 1.5]"
unit_text = "µM"
assay_value = 6.0

[[record]]
molecule = "CCCCCCNc1nc(-c2ccccc2)nc2ccccc12 [Compound 1.6, N-Hexyl-2-phenylquinazolin-4-amine]"
unit_text = "µM"
assay_value = 12.0

[[record]]
molecule = "COc1ccc(-c2nc(N3CCN(C)CC3)c3ccccc3n2)cc1 [Compound 1.19]"
unit_text = "µM"
assay_value = 18.3

[[record]]
molecule = "COc1ccc(Nc2nc(-c3ccccc3)nc3ccccc23)cc1 [Compound 1.3]"
unit_text = "µM"
assay_value = 6.0


* * *

Experiment: Stability in SGF, SIF, PBS (HPLC-MS)
Format: physicochemical
Conditions: simulated intestinal fluid (SIF); SIF pH 6.8, 120 min incubation; read-out: Stability t1/2 SIF
Procedure: Stability assays were performed according to the procedure described in a previous work (Leal et al., [2019]). […] Compound 1.9 was selected to perform in vitro physicochemical studies (solubility and stability). The solubility (S) was evaluated at SGF (pH 1.2), SIF (pH 6.8), and PBS solution (pH 7.4), employing the shake-flask method with UV spectroscopy (Bollini et al., [2013]). […] Neither compound modification nor degradation was detected after the different incubation periods. […]
Metric Name: half-life

[[record]]
compound = "OCCN1CCN(c2nc(-c3ccccc3)nc3ccccc23)CC1 [Compound 1.9]"
assay_value = "> 2 h"


* * *

assay: Cytotoxicity assay (MTS/PMS); settings: bovine, MDBK cells
Metric Name: CC50 at 3 days (µM)

[[record]]
chem_smiles = "Clc1ccc2c(NCCN3CCOCC3)ncnc2c1"
unit_text = "µM"
value_comparator = "="
assay_value = 59.3

[[record]]
chem_smiles = "CN1CCN(c2nc(-c3ccccc3)nc3ccccc23)CC1"
unit_text = "µM"
value_comparator = "="
assay_value = 68

[[record]]
chem_smiles = "OCCN1CCN(c2ncnc3cc(Cl)ccc23)CC1"
unit_text = "µM"
value_comparator = ">"
assay_value = 100

[[record]]
chem_smiles = "COc1ccc(-c2nc(N3CCN(C)CC3)c3ccccc3n2)cc1"
unit_text = "µM"
value_comparator = "="
assay_value = 37.1

[[record]]
chem_smiles = "c1ccc(-c2nc(NCCN3CCOCC3)c3ccccc3n2)cc1"
unit_text = "µM"
value_comparator = "="
assay_value = 55.9


* * *

# reported CC50 at 3 days; entries follow
assay: Cytotoxicity assay (MTS/PMS); conditions: bovine, MDBK cells
Metric Name: CC50 at 3 days (µM)

[[record]]
chem_smiles = "CN(C)c1ccc(-c2nc(N3CCN(CCO)CC3)c3ccccc3n2)cc1"
unit_text = "µM"
value_comparator = "="
assay_value = 61

[[record]]
chem_smiles = "O=[N+]([O-])c1ccc(-c2nc(N3CCN(CCO)CC3)c3ccccc3n2)cc1"
unit_text = "µM"
value_comparator = "="
assay_value = 12

[[record]]
chem_smiles = "O=[N+]([O-])c1ccc(-c2nc(NCCN3CCCCC3)c3ccccc3n2)cc1"
unit_text = "µM"
value_comparator = "="
assay_value = 30.2

[[record]]
chem_smiles = "CC1(C)CC(Nc2nc(-c3ccccc3)nc3ccccc23)CC(C)(C)N1"
unit_text = "µM"
value_comparator = "="
assay_value = 7.4

[[record]]
chem_smiles = "c1ccc(CN2CCC(Nc3nc(-c4ccccc4)nc4ccccc34)CC2)cc1"
unit_text = "µM"
value_comparator = "="
assay_value = 22.2

[[record]]
chem_smiles = "CN(C)CCCNc1nc(-c2ccccc2)nc2ccccc12"
unit_text = "µM"
value_comparator = "="
assay_value = 57

[[record]]
chem_smiles = "OCCN1CCN(c2nc(-c3ccc(Cl)cc3Cl)nc3ccccc23)CC1"
unit_text = "µM"
value_comparator = "="
assay_value = 31.5

[[record]]
chem_smiles = "Cc1ccc(-c2nc(N3CCN(CCO)CC3)c3ccccc3n2)cc1"
unit_text = "µM"
value_comparator = "="
assay_value = 55.4

[[record]]
chem_smiles = "Clc1ccc2c(NCCN3CCCCC3)ncnc2c1"
unit_text = "µM"
value_comparator = ">"
assay_value = 100

[[record]]
chem_smiles = "CN1CCN(c2nc(-c3ccc([N+](=O)[O-])cc3)nc3ccccc23)CC1"
unit_text = "µM"
value_comparator = "="
assay_value = 13

[[record]]
chem_smiles = "OCCN1CCN(c2nc(-c3ccccc3)nc3ccccc23)CC1"
unit_text = "µM"
value_comparator = "="
assay_value = 32

[[record]]
chem_smiles = "[O-][n+]1ccc(CNc2nc(-c3ccccc3)nc3ccccc23)cc1"
unit_text = "µM"
value_comparator = ">"
assay_value = 100

[[record]]
chem_smiles = "c1ccc(-c2nc(NCCN3CCCCC3)c3ccccc3n2)cc1"
unit_text = "µM"
value_comparator = "="
assay_value = 19.6


* * *

In this section we review reported MNCC (maximum non-cytotoxic concentration) values for a set of compounds.
tested on: MDBK cells; experiment: Cytotoxicity assay (MTS/PMS); conditions: MDBK cells, 3 days
Metric Name: MNCC (maximum non-cytotoxic concentration) (µM)

[[record]]
compound = "CN1CCN(c2nc(-c3ccc([N+](=O)[O-])cc3)nc3ccccc23)CC1 [Compound 1.14]"
target = "MDBK cells"
assay_value = 8.7

[[record]]
compound = "O=[N+]([O-])c1ccc(-c2nc(NCCN3CCCCC3)c3ccccc3n2)cc1 [Compound 1.15]"
target = "MDBK cells"
assay_value = 14.6

[[record]]
compound = "c1ccc(-c2nc(NCCN3CCCCC3)c3ccccc3n2)cc1 [Compound 1.10]"
target = "MDBK cells"
assay_value = 6.4

[[record]]
compound = "c1ccc(CNc2nc(-c3ccccc3)nc3ccccc23)cc1 [Compound 1.4]"
target = "MDBK cells"
assay_value = 6.0

[[record]]
compound = "Clc1ccc2c(NCCN3CCOCC3)ncnc2c1 [Compound 1.21]"
target = "MDBK cells"
assay_value = 17.3

[[record]]
compound = "CN1CCN(c2nc(-c3ccccc3)nc3ccccc23)CC1 [Compound 1.8]"
target = "MDBK cells"
assay_value = 19.8

[[record]]
compound = "c1ccc(-c2nc(NCc3cccnc3)c3ccccc3n2)cc1 [Compound 1.1]"
target = "MDBK cells"
assay_value = 12.0

[[record]]
compound = "c1ccc(-c2nc(NCCN3CCOCC3)c3ccccc3n2)cc1 [Compound 1]"
target = "MDBK cells"
assay_value = 10.9

[[record]]
compound = "Cc1ccc(CNc2nc(-c3ccccc3)nc3ccccc23)cc1 [Compound 1.2]"
target = "MDBK cells"
assay_value = 6.0


* * *

Tested on: BVDV type 1 NADL strain
Test: Anti-BVDV assay (CPE reduction, MTS/PMS)
Type: cell-based, Bovine viral diarrhea virus
Details: in vitro selectivity index, MDBK cells / BVDV NADL
Experimental: (A) Cytotoxicity. […] Mock-treated cells were added as control. […] (B) Antiviral activity. Madin-Darby bovine kidney cells (MDBK NBL-1; ATCC CCL-22) were grown in Eagle's Minimum Essential Medium (E-MEM), supplemented with 10% biotechnological fetal bovine serum (Internegocios, Argentina) (GM) at 37°C and 5% CO2. […] Then, serial dilutions of the test compounds in IM were added. […] The absorbance of each well was read at 490 nm. […]
Metric Name: SI (CC50/EC50)

[[record]]
compound = "CN(C)c1ccc(-c2nc(N3CCN(CCO)CC3)c3ccccc3n2)cc1 [Compound 1.18]"
target = "BVDV type 1 NADL strain"
value_comparator = "="
assay_value = 17.4

[[record]]
compound = "Clc1ccc2c(NCCN3CCCCC3)ncnc2c1 [Compound 1.23]"
target = "BVDV type 1 NADL strain"
value_comparator = ">"
assay_value = 24.4

[[record]]
compound = "c1ccc(-c2nc(NCCN3CCOCC3)c3ccccc3n2)cc1 [Compound 1]"
target = "BVDV type 1 NADL strain"
value_comparator = "="
assay_value = 5.8

[[record]]
compound = "CN1CCN(c2ncnc3cc(Cl)ccc23)CC1 [Compound 1.24]"
target = "BVDV type 1 NADL strain"
value_comparator = ">"
assay_value = 10.8

[[record]]
compound = "O=[N+]([O-])c1ccc(-c2nc(NCCN3CCCCC3)c3ccccc3n2)cc1 [Compound 1.15]"
target = "BVDV type 1 NADL strain"
value_comparator = "="
assay_value = 5.2

[[record]]
compound = "CN(C)CCCNc1nc(-c2ccccc2)nc2ccccc12 [Compound 1.7]"
target = "BVDV type 1 NADL strain"
value_comparator = "="
assay_value = 12.4

[[record]]
compound = "OCCN1CCN(c2nc(-c3ccccc3)nc3ccccc23)CC1 [Compound 1.9]"
target = "BVDV type 1 NADL strain"
value_comparator = "="
assay_value = 17.8

[[record]]
compound = "c1ccc(-c2nc(NCCN3CCCCC3)c3ccccc3n2)cc1 [Compound 1.10]"
target = "BVDV type 1 NADL strain"
value_comparator = "="
assay_value = 14.0

[[record]]
compound = "Cc1ccc(-c2nc(N3CCN(CCO)CC3)c3ccccc3n2)cc1 [Compound 1.20]"
target = "BVDV type 1 NADL strain"
value_comparator = "="
assay_value = 6.5

[[record]]
compound = "CC1(C)CC(Nc2nc(-c3ccccc3)nc3ccccc23)CC(C)(C)N1 [Compound 1.12]"
target = "BVDV type 1 NADL strain"
value_comparator = "="
assay_value = 5.3

[[record]]
compound = "Clc1ccc2c(NCCN3CCOCC3)ncnc2c1 [Compound 1.21]"
target = "BVDV type 1 NADL strain"
value_comparator = "="
assay_value = 25.8

[[record]]
compound = "CN1CCN(c2nc(-c3ccccc3)nc3ccccc23)CC1 [Compound 1.8]"
target = "BVDV type 1 NADL strain"
value_comparator = "="
assay_value = 48.6

[[record]]
compound = "COc1ccc(-c2nc(N3CCN(C)CC3)c3ccccc3n2)cc1 [Compound 1.19]"
target = "BVDV type 1 NADL strain"
value_comparator = "="
assay_value = 2.9


// data source = paper PMC7793975
